From: PubChem BioAssay AID504580

- protocol: fluorescent RNA aptamer quenching, single concentration, confirmation, artefact control for GRK2 RNA aptamer inhibitor project, biochemical, single point, cherry pick 1, flow cytometry (AID 504580);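 also: counterscreen run without GRK2 so only probe quenching by compound is measured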
- experimental context: Carboxyfluorescein RNA aptamer on beads, at 10 µM, stronger effect = lower value
Out of some 2,000 compounds screened, fewer than 10 were called active. Not all results are given here.
recorded metric: fluorescence response (% of DMSO)

CCN1/C(=C\c2ccc3ccccc3[n+]2CC)Sc2cc(C)ccc21    173% (inactive)
Cc1ccc(N2C(=O)C3N=NN(CC(=O)N4N=C(c5cccc6ccccc56)CC4c4ccccc4)C3C2=O)cc1 (configuration not stated)    101% (inactive)
COc1cccc(CN(C)CC(=O)Nc2sc3c(c2C#N)CCC3)c1    99.9% (inactive)
Cc1ccc(C(CNC(=O)Nc2cccc(C)c2)N2CCN(C)CC2)cc1 (configuration not stated)    98% (inactive)
O=S(=O)(Nc1ccc(-c2ccc(N3CCOCC3)nn2)cc1)c1cc(Cl)ccc1Cl    108% (inactive)
O=C(Nc1ccc(-c2nnc(-c3ccccc3)o2)cc1)c1ccc(Br)o1    98.8% (inactive)
O=C(Oc1ccc(Br)cc1)c1cccnc1    96.7% (inactive)
Cc1nn(Cc2ccc(F)cc2)c(C)c1NC(=O)c1noc2c1CCc1ccccc1-2    97% (inactive)
Cc1cccc(NC(=O)C2CCCN(C(=O)NCc3ccccc3)C2)c1C (configuration not stated)    102% (inactive)
O=C(COC(=O)c1ccc(F)cc1F)Nc1ncccn1    95.8% (inactive)
CNS(=O)(=O)c1cccc(C(=O)NCC2CCCCC2)c1    101% (inactive)
COc1ccc(NC(=O)CN(C)C(=O)c2cc(-c3ccc(C)o3)nc3ccccc23)cc1    100% (inactive)
CSc1ccc(/C=C2\NC(=O)NC2=O)cc1    95.8% (inactive)
Cc1nc(C(=O)NCc2ccccc2)sc1C1(C)CC(c2cccnc2)=NO1 (configuration not stated)    97.1% (inactive)
Cc1cc2cc(CNC(=O)c3cccs3)ccc2[nH]1    86.2% (inactive)
NC(=O)C1CCN(C(=O)c2ccc3c(=O)n(Cc4cccc(Br)c4)c(=S)[nH]c3c2)CC1    98.1% (inactive)
COc1cc(C(=O)NCc2ccc3c(c2)cc(C)n3C)cc(OC)c1OC    96.5% (inactive)
CN/C(=C\[N+](=O)[O-])NCCSCc1csc(CN(C)C)n1    99.2% (inactive)
COc1ccc(Nc2nc(-c3cccnc3)nc3ccccc23)cn1    101% (inactive)
CCCc1nc2ccccc2c(=O)n1NC(=O)c1c(O)c2ccccc2[nH]c1=O    101% (inactive)
C=C(C)C(=O)Nc1cccc(C2=NOC3(C2)C[C@H](C(N)=O)N(C(=O)C(c2ccccc2)c2ccccc2)C3)c1 (some centres not stated)    102% (inactive)
Cc1nc(Nc2ccccc2F)c2nnn(Cc3ccccc3Cl)c2n1    99.8% (inactive)
